Test system: amphotericin B-resistant C. albicans (ARCA, ATCC 90873)
assay protocol: Antifungal MIC assay, amphotericin B-resistant C. albicans
Type: cell-based
measurement parameters: Candida albicans, ATCC90873; MIC90; values expressed as 95% confidence interval; read-out: Minimal inhibitory concentration, ARCA
readout label: MIC

Some solved cases for reference:
O=c1oc2c(O)cc(Oc3ccc(Oc4ccc(Oc5ccc(Oc6ccc(Oc7ccc(Oc8ccc(Oc9ccc(Oc%10ccc(Oc%11ccc(Oc%12ccc(-c%13ccc(O)c(O)c%13)cc%12O)cc%11O)cc%10O)cc9O)cc8O)cc7O)cc6O)cc5O)cc4O)cc3O)cc2c2cc(O)c(O)cc12 | > 50 µg/mL
Oc1ccc(Oc2ccc(Oc3ccc(Oc4ccc(Oc5ccc(Oc6ccc(Oc7ccc(Oc8ccc(-c9ccc(O)c(O)c9)cc8O)cc7O)cc6O)cc5O)cc4O)cc3O)cc2O)cc1O | 46 µg/mL
O=c1oc2c(O)cc(Oc3ccc(Oc4ccc(Oc5ccc(Oc6ccc(Oc7ccc(Oc8ccc(Oc9ccc(Oc%10ccc(Oc%11ccc(-c%12ccc(O)c(O)c%12)cc%11O)cc%10O)cc9O)cc8O)cc7O)cc6O)cc5O)cc4O)cc3O)cc2c2cc(O)c(O)cc12 | > 50 µg/mL

Below: the item to evaluate.
Q: Quick check: MIC of Oc1ccc(Oc2ccc(Oc3ccc(Oc4ccc(Oc5ccc(Oc6ccc(Oc7ccc(Oc8ccc(Oc9ccc(-c%10ccc(O)c(O)c%10)cc9O)cc8O)cc7O)cc6O)cc5O)cc4O)cc3O)cc2O)cc1O ?
A: > 50 µg/mL
